Entries annotated with measured growth
test system: A498 renal; test: NCI-60 one-dose screen, 48 h (100 = growth as untreated, 0 = no growth, -100 = all killed); settings: 10 µM unless noted
Compounds without any hit were thinned out: in the full panel of roughly 83,000, 20% have a hit.
Entry rule: numbers only, all in %.

Examples with their reported growth follow.
Cc1ccc(-n2c(-c3ccccc3)c(-c3ccccc3)c3c(SCC(=O)n4[nH]c(N)cc4=O)ncnc32)cc1
114
O=C1N=c2cc3c(cc2=C/C1=C/c1sc(=S)n(CCc2ccc(O)cc2)c1O)OCCO3
80.2
Fc1c[c-]c(-c2ccccn2)c(F)c1.[CH3-].[Pt+2].c1ccc(P(C[PH+](c2ccccc2)c2ccccc2)c2ccccc2)cc1
-79.3

Continue with the molecule presented below.
// growth value for O=C(Nc1ccccc1-c1nc2ccccc2c(=O)[nH]1)c1cc2ccccc2[nH]1 : 119
